# GSK3β (Homo sapiens, UniProt P49841): pIC50 values follow
# Sequence (P49841 whole entry): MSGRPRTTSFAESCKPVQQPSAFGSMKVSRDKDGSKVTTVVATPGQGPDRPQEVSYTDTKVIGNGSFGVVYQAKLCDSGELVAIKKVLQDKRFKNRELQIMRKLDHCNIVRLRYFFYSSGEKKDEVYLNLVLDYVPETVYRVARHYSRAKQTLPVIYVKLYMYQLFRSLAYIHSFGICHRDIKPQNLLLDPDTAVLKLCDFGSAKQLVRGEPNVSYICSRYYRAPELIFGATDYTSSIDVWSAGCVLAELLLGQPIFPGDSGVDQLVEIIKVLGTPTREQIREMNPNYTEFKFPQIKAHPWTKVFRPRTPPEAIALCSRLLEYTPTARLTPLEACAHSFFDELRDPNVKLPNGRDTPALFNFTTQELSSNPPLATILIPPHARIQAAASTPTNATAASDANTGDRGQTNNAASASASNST
pIC50: −log10 of the molar value.
PROPERTY LABEL: pIC50

1. CCC(=O)c1ccc(NC2CCCN(c3nc(-c4ccc(Cl)cc4Cl)nn4cnnc34)C2)nc1N (stereo not drawn)	8.36
2. N#Cc1sc(NCCNc2nc(-c3ccc(Cl)cc3Cl)cn3ncnc23)nc1N	8.49
3. Nc1nc(NCCNc2nc(-c3ccc(Cl)cc3Cl)nn3cnnc23)ccc1C(=O)C(F)(F)F	8.04
